Could you please report measured Kd for the items listed next?
molecular target: T1, Full-length human Leucine-rich repeat kinase 2 (LRRK2), N-terminal Strep/Flag (SF) tagged (human, UniProt Q5S007 1-2527); experiment: MST; LRRK2 titrated to m-TAMRA-labelled Nb, 500 µM GDP
T1 construct: Purified from HEK293T cells in presence of GDP or GTPγS; also called FL LRRK2; FL-LRRK2
T1 sequence (Q5S007 other isoform, or with tags, fused parts or gaps limits assumed): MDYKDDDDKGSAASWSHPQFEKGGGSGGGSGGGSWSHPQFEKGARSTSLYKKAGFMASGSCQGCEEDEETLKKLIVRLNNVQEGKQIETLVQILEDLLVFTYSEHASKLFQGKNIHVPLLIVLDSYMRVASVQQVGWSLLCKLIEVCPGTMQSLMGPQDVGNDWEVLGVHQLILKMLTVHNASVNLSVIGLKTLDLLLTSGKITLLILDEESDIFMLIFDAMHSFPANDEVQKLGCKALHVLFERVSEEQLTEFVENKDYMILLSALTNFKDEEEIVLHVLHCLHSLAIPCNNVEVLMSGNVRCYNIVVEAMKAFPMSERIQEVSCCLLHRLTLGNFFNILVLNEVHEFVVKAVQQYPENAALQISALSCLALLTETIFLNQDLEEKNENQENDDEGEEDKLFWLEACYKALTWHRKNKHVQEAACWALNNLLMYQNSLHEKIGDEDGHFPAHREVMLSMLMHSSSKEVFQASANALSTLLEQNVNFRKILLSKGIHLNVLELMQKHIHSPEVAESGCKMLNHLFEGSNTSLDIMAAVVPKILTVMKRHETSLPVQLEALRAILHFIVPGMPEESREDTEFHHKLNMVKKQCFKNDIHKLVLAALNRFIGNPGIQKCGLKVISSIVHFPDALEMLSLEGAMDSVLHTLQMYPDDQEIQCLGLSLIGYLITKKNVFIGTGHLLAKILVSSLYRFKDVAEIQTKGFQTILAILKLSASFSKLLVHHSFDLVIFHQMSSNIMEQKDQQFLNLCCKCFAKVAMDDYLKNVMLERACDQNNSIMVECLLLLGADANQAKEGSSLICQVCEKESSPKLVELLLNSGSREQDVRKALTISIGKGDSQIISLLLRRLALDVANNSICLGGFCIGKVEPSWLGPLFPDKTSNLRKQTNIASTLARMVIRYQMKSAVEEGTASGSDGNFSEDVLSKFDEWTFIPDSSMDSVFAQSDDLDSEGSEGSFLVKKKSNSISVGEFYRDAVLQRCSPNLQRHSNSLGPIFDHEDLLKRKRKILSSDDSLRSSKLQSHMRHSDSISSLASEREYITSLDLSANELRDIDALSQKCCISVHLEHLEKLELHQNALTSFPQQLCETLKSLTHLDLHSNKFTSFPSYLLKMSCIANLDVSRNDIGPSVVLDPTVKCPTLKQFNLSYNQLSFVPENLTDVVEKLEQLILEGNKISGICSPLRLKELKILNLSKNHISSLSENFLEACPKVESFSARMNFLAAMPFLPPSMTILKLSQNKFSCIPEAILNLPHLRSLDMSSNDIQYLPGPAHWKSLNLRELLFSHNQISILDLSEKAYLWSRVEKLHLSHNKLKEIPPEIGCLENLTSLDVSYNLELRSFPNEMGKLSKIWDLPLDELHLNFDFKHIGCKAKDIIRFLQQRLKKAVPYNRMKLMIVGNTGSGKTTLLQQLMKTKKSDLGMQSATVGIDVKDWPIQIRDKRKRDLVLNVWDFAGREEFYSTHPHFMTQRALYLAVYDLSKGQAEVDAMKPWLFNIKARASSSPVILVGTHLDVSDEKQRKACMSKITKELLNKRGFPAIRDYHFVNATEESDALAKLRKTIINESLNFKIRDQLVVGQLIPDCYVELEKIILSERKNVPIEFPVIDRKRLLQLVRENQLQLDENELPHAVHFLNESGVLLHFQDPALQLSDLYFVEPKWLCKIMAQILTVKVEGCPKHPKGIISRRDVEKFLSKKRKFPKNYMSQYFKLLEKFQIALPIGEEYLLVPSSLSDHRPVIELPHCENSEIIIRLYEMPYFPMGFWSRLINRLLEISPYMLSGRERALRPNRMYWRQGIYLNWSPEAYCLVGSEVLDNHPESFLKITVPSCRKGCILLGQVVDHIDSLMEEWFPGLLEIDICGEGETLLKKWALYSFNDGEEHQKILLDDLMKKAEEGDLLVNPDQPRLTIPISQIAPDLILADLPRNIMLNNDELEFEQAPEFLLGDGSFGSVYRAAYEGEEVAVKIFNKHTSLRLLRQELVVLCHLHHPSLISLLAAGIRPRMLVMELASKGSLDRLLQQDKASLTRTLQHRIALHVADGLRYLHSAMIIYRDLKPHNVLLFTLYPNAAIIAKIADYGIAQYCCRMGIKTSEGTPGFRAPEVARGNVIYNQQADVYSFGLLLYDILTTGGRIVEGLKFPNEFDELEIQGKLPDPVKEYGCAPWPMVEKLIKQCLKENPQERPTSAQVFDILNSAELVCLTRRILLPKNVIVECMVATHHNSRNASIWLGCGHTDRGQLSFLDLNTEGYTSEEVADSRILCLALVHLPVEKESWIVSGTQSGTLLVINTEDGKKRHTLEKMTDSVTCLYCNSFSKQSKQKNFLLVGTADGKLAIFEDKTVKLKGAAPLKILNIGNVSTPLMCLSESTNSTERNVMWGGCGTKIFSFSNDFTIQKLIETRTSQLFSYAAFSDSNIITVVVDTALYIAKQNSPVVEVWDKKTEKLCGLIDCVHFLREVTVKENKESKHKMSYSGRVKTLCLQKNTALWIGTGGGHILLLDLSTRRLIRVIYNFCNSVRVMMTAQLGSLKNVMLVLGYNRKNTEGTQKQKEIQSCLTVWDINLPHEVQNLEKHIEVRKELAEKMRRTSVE
Numbers only, in nM.

Qu. GET /values?readout=Kd&item= Nb17 (CA13606) (VHH) VHH: QVQLVESGGGLVQPGGSLRLSCAASGSNIGYMAWYRQAPGSQRELVARIASGGSANYADSVKGRFTISRDNVKNTVYLHMNSLKPVDTAVYYCHADAWYNSRWSDYWGQGTQVTVSS
Ans. 67

Consider the following items and state reported Kd for each.
1. Nb36 (CA14130) (VHH) VHH: QVQLVESGGGLVQPGGSLRLSCAASGSIRSITTSAWFRQPPGKQRELVAGISSGTSTNYADSVKGRFTISRDNAKNTVYLQMNSLKPEDTAVYYCHVWISGTWYSGQGTQVTVSS
2. Nb1 (CA12610) (VHH) VHH: QVQLVESGGGLVQAGGSLRLSCVASGRIFSGNAMGWYRQAPGRQRELVAGITNGGYTNYRQFVKGRFTISRDNAKRTVYLQMNSLKPEDTAVYYCNALDREARQVDYWGQGTQVTVSS
3. Nb22 (CA13611) (VHH) VHH: QVQLVESGGGLVQAGGSLRLSCAASGRTFSSYTMGWFRQAPGKEREFVAAIRWSGGSTYYADSVKGRFTISRDNAKNTVYLQMNSLKPEDTAVYYCAASDRGGFIATSGGWMDYWGKGTQVTVSS
4. Nb40 (CA14135) (VHH, biotinylated form used as trapping agent in BLI) VHH: QVQLVESGGGLVQPGGSLRLSCVASGTIYAINRMGWYRQAPGKQRELVALITLGGGTNYGDSVKGRFTISRDNAKNTGYLQMNSLKPEDTAVYYCKVESSGYTDVFWGQGTQVTVSS
5. Nb39 (CA14134) (VHH) VHH: QVQLVESGGGLVQAGGSLRLSCRASGGTFSTYAMGWFRQVPGKERETVAAVKWSGDMTYYADSVKGRFTISRDNAKNTVYLQMNSLRPEDTAVYYCAARRGLSYYRGPSEYDYWGQGTQVTVSS
6. Nb38 (CA14133) (VHH) VHH: QVQLVESGGGLVQPGGSLRLSCAASGSIRSIATSAWYRQPPGKQRELVAGISSGTTTNYADSVKGRFTISRDNAKNTVYLQMNSLKPEDTAVYYCHAWISGTWISGQGTQVTVSS
7. Nb6 (CA12618) (VHH) VHH: QVQLVESGGGLVQAGGSLRLSCAASGSIFSPTAMGWYRQAPGKERELVAGITSGGYTNYRNFARGRFTISRDNAKKTVYLQMNSLNPEDTAVYYCNTLTISWSWGQGTQVTVSS

Ans.
78
91
145
26
79
48
83
